# System: RARg:RXRa (NR concentration 270 nM, RXRa partner concentration 90 nM)
# assay procedure: PBM binding z-score (relative to random genomic background probes); higher = stronger binding; sequences stand for … in GC…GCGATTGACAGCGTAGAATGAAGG
As shown below, each of these sequences has a reported PBM binding z-score value.
Write the number on its own, no unit after it.

A selection of reference data follows.
sequence chain | PBM binding z-score
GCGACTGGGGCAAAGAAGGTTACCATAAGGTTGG | 1.19
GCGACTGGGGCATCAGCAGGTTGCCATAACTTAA | -0.0231
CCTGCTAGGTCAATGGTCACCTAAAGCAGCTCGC | 3.72

API: value(readout= PBM binding z-score, system= RARg:RXRa (NR concentration 270 nM, RXRa partner concentration 90 nM), query= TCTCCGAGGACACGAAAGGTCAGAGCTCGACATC ) 4.91

API: value(readout= PBM binding z-score, system= RARg:RXRa (NR concentration 270 nM, RXRa partner concentration 90 nM), query= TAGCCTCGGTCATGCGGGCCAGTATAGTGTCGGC ) 1.57

API: value(readout= PBM binding z-score, system= RARg:RXRa (NR concentration 270 nM, RXRa partner concentration 90 nM), query= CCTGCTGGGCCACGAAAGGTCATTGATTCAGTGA ) 4.89

API: value(readout= PBM binding z-score, system= RARg:RXRa (NR concentration 270 nM, RXRa partner concentration 90 nM), query= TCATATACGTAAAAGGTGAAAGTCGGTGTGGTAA ) 1.27

API: value(readout= PBM binding z-score, system= RARg:RXRa (NR concentration 270 nM, RXRa partner concentration 90 nM), query= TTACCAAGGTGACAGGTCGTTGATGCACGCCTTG ) 1.37
